# measured.target: T1, TFAM (no MTS) (Homo sapiens, UniProt Q00059 43-246)
# T1 sequence: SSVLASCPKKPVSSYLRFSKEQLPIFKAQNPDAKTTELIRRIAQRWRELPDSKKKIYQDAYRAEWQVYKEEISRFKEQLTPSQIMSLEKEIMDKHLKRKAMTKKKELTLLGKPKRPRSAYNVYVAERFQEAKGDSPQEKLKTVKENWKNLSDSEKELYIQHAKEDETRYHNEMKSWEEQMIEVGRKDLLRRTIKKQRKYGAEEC
# assay.procedure: fluorescence anisotropy; Hill n 3.04±0.19; FP: 25 mM HEPES, 10 mM Mg(OAc)2, 25 mM NaOAc, 75 mM KOAc, pH 7.5, 1 nM DNA, TFAM 0-15 nM diluted on ice (read temperature not stated); AFM oligos: on ice, 2 min
# test.settings: protein: recombinant; label: 5' 6-FAM on strand 1; blunt
measured.endpoint: pKd
Give bare numbers, as −log10 of the molar value.

Query: In one line, give reported pKd of the entry ND1_288 (dsDNA) DNA 1: CTCCACACTAGCAGAGACCAACCGAACCCCCTT DNA 2: AAGGGGGTTCGGTTGGTCTCTGCTAGTGTGGAG .
Reply: 8.47
